- Tested on: Trigonella foenum-graecum
- Protocol summary: Seed germination and seedling shoot/root growth test in petridishes
- Type: in vivo
- Stated conditions: Trigonella foenum graecum; 0.001 μM; control = 100%
Entries annotated with measured Percent (%) root growth of seedlings in relation to control on 9th day after sowing
Just the number in %, nothing appended.

Observe how each entry below is paired with its result.
# Compound, Target desc, Result value
records = [
    ("CC(=O)OCC1(O)CC23CCC4C(C)(C)C(=O)CCC4(C)C2CCC1C3 (stereo not drawn) [Calliterpenone Monoacetate, calliterpenone monoacetate]", "Trigonella foenum-graecum", 131),
    ("CC1(C)C(=O)CC[C@@]2(C)[C@H]1CC[C@@]13C[C@H](CC[C@@H]12)[C@@](O)(CO)C3 [Calliterpenone, 16α, 17 dihydroxy phyllocladan-3 one]", "Trigonella foenum-graecum", 141),
    ("CC(=O)OCC1(OC(C)=O)CC23CCC4C(C)(C)C(=O)CCC4(C)C2CCC1C3 (stereo not drawn) [Calliterpenone Diacetate, calliterpenone diacetate]", "Trigonella foenum-graecum", 73),
    ("CC1(C)OCC2(CC34CCC5C(C)(C)C(=O)CCC5(C)C3CCC2C4)O1 (stereo not drawn)", "Trigonella foenum-graecum", 132),
    ("C=C1C[C@]23C[C@@]1(O)CC[C@H]2[C@@]12C=C[C@H](O)[C@@](C)(C(=O)O1)[C@H]2[C@@H]3C(=O)O [GA3, Gibberellic acid, reference compound]", "Trigonella foenum-graecum", 123),
]

# evaluate next
Fill in the recorded Percent (%) root growth of seedlings in relation to control on 9th day after sowing for this compound, with Trigonella foenum-graecum as test system: CC1(C)C(O)CCC2(C)C3CCC4CC3(CCC12)CC4(O)CO (stereo not drawn) [Trihydroxy Phyllocladane, 30β, 16α, 17. trihydroxy phyllocladane]
55

###

- Tested on: Trigonella foenum-graecum
- Protocol summary: Seed germination and seedling shoot/root growth test in petridishes
- Format: in vivo
- Stated conditions: Trigonella foenum graecum; 0.01 μM; control = 100%
Entries annotated with measured Percent (%) germination of seeds in relation to control on 9th day after sowing
Just the number in %, nothing appended.

# Molecule, Result value
records = [
    ("CC1(C)C(=O)CC[C@@]2(C)[C@H]1CC[C@@]13C[C@H](CC[C@@H]12)[C@@](O)(CO)C3 [Calliterpenone, 16α, 17 dihydroxy phyllocladan-3 one]", 125),
    ("CC(=O)OCC1(O)CC23CCC4C(C)(C)C(=O)CCC4(C)C2CCC1C3 (stereo not drawn) [Calliterpenone Monoacetate, calliterpenone monoacetate]", 113),
]

# evaluate next
Fill in the recorded Percent (%) germination of seeds in relation to control on 9th day after sowing for this molecule, with Trigonella foenum-graecum as test system: CC1(C)OCC2(CC34CCC5C(C)(C)C(=O)CCC5(C)C3CCC2C4)O1 (stereo not drawn) [Isopropylideno Calliterpenone]
113

###

- System: Trigonella foenum-graecum
- Protocol summary: Seed germination and seedling shoot/root growth test in petridishes
- Format: in vivo
- Stated conditions: Trigonella foenum graecum; 0.01 μM; control = 100%
Measurement type: Percent (%) germination of seeds in relation to control on 9th day after sowing
Just the number in %, nothing appended.

Observe how each entry below is paired with its result.
# Molecule, Result value
data = [
    ("CC1(C)C(O)CCC2(C)C3CCC4CC3(CCC12)CC4(O)CO (stereo not drawn) [Trihydroxy Phyllocladane, 30β, 16α, 17. trihydroxy phyllocladane]", 75),
    ("CC(=O)OCC1(OC(C)=O)CC23CCC4C(C)(C)C(=O)CCC4(C)C2CCC1C3 (stereo not drawn) [Calliterpenone Diacetate, calliterpenone diacetate]", 100),
]

// returns reported Percent (%) germination of seeds in relation to control on 9th day after sowing for input C=C1C[C@]23C[C@@]1(O)CC[C@H]2[C@@]12C=C[C@H](O)[C@@](C)(C(=O)O1)[C@H]2[C@@H]3C(=O)O [GA3, Gibberellic acid, reference compound]
100
